Biological target: T1, full-length human 14-3-3σ fused to the C terminus of MBP (human, UniProt P31947 1-248)
T1 chain: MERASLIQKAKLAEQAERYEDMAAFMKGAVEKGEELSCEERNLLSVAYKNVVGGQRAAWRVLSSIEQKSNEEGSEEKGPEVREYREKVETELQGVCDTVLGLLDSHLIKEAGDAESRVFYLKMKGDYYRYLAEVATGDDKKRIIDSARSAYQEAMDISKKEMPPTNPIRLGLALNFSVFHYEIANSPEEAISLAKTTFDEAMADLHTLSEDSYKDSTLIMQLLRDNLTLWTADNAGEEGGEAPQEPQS
Experiment: FP
Non-standard residues stand in square brackets, D forms with d. No end group written: not given here. *: point of attachment. FITC = O=C1OC2(c3ccc(O)cc3Oc3cc(O)ccc32)c2ccc(NC(=S)*)cc21; Biotin = O=C1N[C@H]2[C@H](CS[C@H]2CCCCC(=O)*)N1; pT = C[C@@H](OP(=O)(O)O)[C@H](N)C(=O)O; ttds = NCCCOCCOCCOCCCNC(=O)CCC(=O)*; pS = N[C@@H](COP(=O)(O)O)C(=O)O
ATTRIBUTE_MEASURED: Kd (µM)
Give bare numbers, in µM.

// below: answered binders
# BINDER, REPORTED_VALUE
records = [
    ("{Biotin-ttds}-RRVRKLPST[pT]L [RSK1 phospho-PBM peptide RSK1_-1P]", 1.71),
    ("{FITC}-WLRRA[pS]APLPGLK [fluorescently labeled HSPB6 phosphopeptide (fpB6)]", 9.62),
    ("{Biotin-ttds}-RRVRKLPS[pT]TL [RSK1 phospho-PBM peptide RSK1_-2P]", 3.57),
]

What Kd value was documented for this binder, {Biotin-ttds}-RLQRRRE[pT]QV [HPV18 E6 phospho-PBM peptide p18E6] ? 139

Where these numbers come from: paper PMC7961048
